Data provenance: patent US20090156577A1

tested on: pathogenic bacteria; assay: MIC by microdilution broth method (NCCLS M7-A4), in vitro antibacterial activity; assay type: cell-based; conditions: Staphylococcus aureus, Organism A: Staphylococcus aureus OC4172; read-out: MIC
Hi! Just check whether MIC is below 0.2 µg/mL. Below gives Satisfied, equal or above gives Not satisfied.

COc1c(N2CCC/C(=C(/Cl)CN)CC2)c(F)cc2c(=O)c(C(=O)O)cn(C3CC3)c12 [Compound 393] :: Not satisfied
NC/C(Cl)=C1\CCCN(c2nc3c(cc2F)c(=O)c(C(=O)O)cn3C2CC2)C1 [Compound 255] :: Not satisfied
C/C(CN)=C1/CCCN(c2nc3c(cc2F)c(=O)c(C(=O)O)cn3-c2ccc(F)cc2F)C1 [Compound 381] :: Not satisfied
COc1c(N2CC(=C(C)CN)C2)c(F)cc2c(=O)c(C(=O)O)cn([C@@H]3C[C@@H]3F)c12 [Compound 368] :: Not satisfied
COc1c(N2CC(=C(C)CN)C2)c(F)cc2c(=O)c(C(=O)O)cn(C3CC3)c12 [Compound 391] :: Satisfied
COc1c(N2CC(=C(F)CN)C2)c(F)cc2c(=O)c(C(=O)O)cn(C3CC3)c12 [Compound 273] :: Satisfied
O=C(O)c1cn(C2CC2)c2cc(N3CCC(=CCO)CC3)c(F)cc2c1=O [Compound 164] :: Satisfied
C/C(CN)=C1\CCCN(c2c(F)cc3c(=O)c(C(=O)O)cn(-c4nc(N)c(F)cc4F)c3c2Cl)C1 [Compound 422] :: Satisfied
NC/C(F)=C1\COCCN(c2cc3c(cc2F)c(=O)c(C(=O)O)cn3C2CC2)C1 [Compound 504] :: Not satisfied

----------
Some compounds, each annotated with its measured MIC.
test system: pathogenic bacteria; assay: MIC by microdilution broth method (NCCLS M7-A4), in vitro antibacterial activity; type: cell-based; conditions: Staphylococcus aureus, Organism A: Staphylococcus aureus OC4172; read-out: MIC
metric: MIC (µg/mL)

NCC(Cl)=C1CCN1c1cc2c(cc1F)c(=O)c(C(=O)O)cn2C1CC1 :: 0.03
CNCC(F)=C1CCN(c2c(F)cc3c(=O)c(C(=O)O)cn(C4CC4)c3c2OC)CC1 :: 0.12
C=C(C)CC(CN)=C1CCN(c2c(F)cc3c(=O)c(C(=O)O)cn(C4CC4)c3c2OC)CC1 :: 0.5
Nc1nc(-n2cc(C(=O)O)c(=O)c3cc(F)c(N4CCC/C(=C(\F)CO)C4)c(Cl)c32)c(F)cc1F :: 0.12
CNCC(Cl)=C1CCN(c2c(F)cc3c(=O)c(C(=O)O)cn(C4CC4)c3c2O)CC1.Cl :: 0.12
NCC(F)=C1CN(c2nc3c(cc2F)c(=O)c(C(=O)O)cn3-c2ccc(F)cc2F)C1 :: 0.12
COc1c(N2CCC/C(=C\CN)C2)c(F)cc2c(=O)c(C(=O)O)cn(C3CC3)c12 :: 0.06
NC/C(Cl)=C1/CCCN(c2c(F)cc3c(=O)c(C(=O)O)cn(C4CC4)c3c2OC(F)F)C1 :: 0.03
Cc1c(F)c(N2CCC/C(=C(/Cl)CN)C2)cc2c1c(=O)c(C(=O)O)cn2C1CC1 :: 0.5
CNCC(C)=C1CCN(c2c(F)cc3c(=O)c(C(=O)O)cn(C4CC4)c3c2OC(F)F)CC1 :: 0.06
C[C@H]1COc2c(N3CCC/C(=C(\Cl)CN)CC3)c(F)cc3c(=O)c(C(=O)O)cn1c23 :: 0.06
COc1c(N2CCC/C(=C(/F)CN)CC2)c(F)cc2c(=O)c(C(=O)O)cn(C3CC3)c12 :: 0.12
C[C@H]1COc2c(N3CCC/C(=C(/F)CN)CC3)c(F)cc3c(=O)c(C(=O)O)cn1c23 :: 0.12

----------
Some molecules, each annotated with its measured MIC.
Tested on: pathogenic bacteria
Assay: MIC by microdilution broth method (NCCLS M7-A4), in vitro antibacterial activity
Assay type: cell-based
Settings: Staphylococcus aureus, Organism A: Staphylococcus aureus OC4172; read-out: MIC
Protocol: Minimal inhibitory concentration (MIC) has been an indicator of in vitro antibacterial activity widely used in the art. The in vitro antimicrobial activity of the compounds was determined by the microdilution broth method following the test method from the National Committee for Clinical Laboratory Standards (NCCLS). […] Following inoculation of the microdilution trays, the trays are incubated at 35° C. for 16-20 hours and then read. […]
metric: MIC

COc1c(N2CC(=C(Cl)CN)C2)c(F)cc2c(=O)c(C(=O)O)cn(C3CC3)c12 [Compound 189] :: < 0.12 µg/mL
NCC=C1CN(c2c(F)cc3c(=O)c(C(=O)O)cn(-c4nc(N)c(F)cc4F)c3c2Cl)C1 [Compound 420] :: ≤ 0.015 µg/mL
COc1c(N2CCC/C(=C(\F)CN)C2)c(F)c(C)c2c(=O)c(C(=O)O)cn(C3CC3)c12 [Compound 458] :: ≤ 0.015 µg/mL
NCC(Cl)=C1CN(c2c(F)cc3c(=O)c(C(=O)O)cn(-c4nc(N)c(F)cc4F)c3c2Cl)C1 [Compound 268] :: ≤ 0.015 µg/mL

----------
test system: pathogenic bacteria; test: MIC by microdilution broth method (NCCLS M7-A4), in vitro antibacterial activity; type: cell-based; details: Staphylococcus aureus, Organism A: Staphylococcus aureus OC4172; read-out: MIC
Some compounds, each annotated with its measured MIC.
metric: MIC

C[C@H]1COc2c(N3CCC/C(=C(\Cl)CN)C3)c(F)cc3c(=O)c(C(=O)O)cn1c23 :: ≤ 0.015 µg/mL
Cc1c(F)c(N2CCC/C(=C(\Cl)CN)C2)cc2c1c(=O)c(C(=O)O)cn2C1CC1 :: ≤ 0.015 µg/mL
Cc1c(F)c(N2CCC/C(=C/CN)C2)cc2c1c(=O)c(C(=O)O)cn2C1CC1 :: ≤ 0.015 µg/mL

----------
Some molecules, each annotated with its measured MIC.
system: pathogenic bacteria; test: MIC by microdilution broth method (NCCLS M7-A4), in vitro antibacterial activity; assay type: cell-based; settings: Streptococcus pneumoniae, Organism C: fluoroquinolone-resistant clinical isolate of Streptococcus pneumoniae (QRDR amino acid substitutions)
Structures can show the parent of a compound that is named as a salt.
metric: MIC

NC/C=C1\CCCN(c2nc3c(cc2F)c(=O)c(C(=O)O)cn3C2CC2)C1 [Compound 376] :: > 16 mg/L
COc1c(N2CCC/C(=C\CN)C2)c(F)cc2c(=O)c(C(=O)O)cn([C@@H]3C[C@@H]3F)c12 [Compound 409] :: > 16 mg/L
COc1c(N2CCC/C(=C(/C)CN)C2)c(F)cc2c(=O)c(C(=O)O)cn(C3CC3)c12 [Compound 392] :: > 16 mg/L
N#C/C(CN)=C1\CCCN(c2nc3c(cc2F)c(=O)c(C(=O)O)cn3C2CC2)C1 [Compound 441] :: > 16 mg/L
NC/C(F)=C1/COCCN(c2nc3c(cc2F)c(=O)c(C(=O)O)cn3C2CC2)C1 [Compound 497] :: > 16 mg/L
C[C@H]1COc2c(N3CCC/C(=C/CN)C3)c(F)cc3c(=O)c(C(=O)O)cn1c23 [Compound 402] :: > 16 mg/L
NC/C(F)=C1/CCCN(c2nc3c(cc2F)c(=O)c(C(=O)O)cn3C2CC2)C1 [Compound 253, trifluoroacetic acid salt] :: > 16 mg/L
NC/C=C1\CCCN(c2cc3c(cc2F)c(=O)c(C(=O)O)cn3C2CC2)C1 [Compound 384] :: > 16 mg/L
C[C@H]1COc2c(N3CCOC/C(=C(/F)CN)C3)c(F)cc3c(=O)c(C(=O)O)cn1c23 [Compound 494] :: > 16 mg/L
C/C(CN)=C1/CCCN(c2nc3c(cc2F)c(=O)c(C(=O)O)cn3-c2ccc(F)cc2F)C1 [Compound 381] :: > 16 mg/L
CNCC(F)=C1CN(c2c(F)cc3c(=O)c(C(=O)O)cn(-c4nc(N)c(F)cc4F)c3c2Cl)C1 [Compound 418] :: > 16 mg/L
C/C(CN)=C1/CCCN(c2cc3c(cc2F)c(=O)c(C(=O)O)cn3C2CC2)C1 [Compound 385] :: > 16 mg/L

----------
tested on: pathogenic bacteria; experiment: MIC by microdilution broth method (NCCLS M7-A4), in vitro antibacterial activity; format: cell-based; settings: Staphylococcus aureus, Organism A: Staphylococcus aureus OC4172; read-out: MIC
metric: MIC

NCC(Cl)=C1CCN(c2nc3c(cc2F)c(=O)c(C(=O)O)cn3-c2ccc(F)cc2F)CC1 [Compound 271] :: ≤ 0.015 µg/mL
Cc1c(N2CCC(=C(Cl)CN)CC2)c(F)cc2c(=O)c(C(=O)O)cn(C3CC3)c12 [Compound 371] :: ≤ 0.015 µg/mL
COc1c(N2CCC/C(=C(/F)CN)C2)c(F)cc2c(=O)c(C(=O)O)cn(C3CC3)c12 [Compound 388] :: ≤ 0.25 µg/mL
